test system: A549 NSCLC; assay: NCI tumour cell line growth inhibition, 48 h
QUANTITY NAME: TGI

Examples from the recorded data:
| COMPOUND STRUCTURE | TGI |
| --- | --- |
| Oc1ccc(NC(=S)Nc2ccccc2)cc1 | > 100 µM |
| Oc1ccc(-c2c3ccccc3c(-c3ccc(O)cc3)c3ccccc23)cc1 | > 100 µM |

In the following, a different molecule is considered.
Prompt: Write down TGI measured for item Cc1ccc(S(=O)(=O)NC(=O)C2S(=O)(=O)OCCOS2(=O)=O)cc1
Response: > 100 µM

====

compounds and their reported TGI
tested on: EKVX NSCLC; experiment: NCI tumour cell line growth inhibition, 48 h

Some solved entries appear below for comparison.
| COMPOUND | TARGET ENTITY | TGI |
| --- | --- | --- |
| COc1ccc2c(c1)CC[C@@H]1[C@@H]2CC[C@]2(C)/C(=N/OCCN3CCCC3)CC[C@@H]12 | EKVX NSCLC | 12.3 µM |
| Cc1cc(OCc2nc(N)nc(N)c2-c2ccc(Cl)c(Cl)c2)ccc1[N+](=O)[O-] | EKVX NSCLC | 45 µM |
| O=[N+]([O-])c1cc(Br)cc2cc(Cl)cnc12 | EKVX NSCLC | > 100 µM |
| O=CC(OC(=O)c1ccccc1)C(OC(=O)c1ccccc1)C(COC(c1ccccc1)(c1ccccc1)c1ccccc1)OC(=O)c1ccccc1 (centres undefined) | EKVX NSCLC | 61.5 µM |
| CCOC(=O)COc1cc(-c2ccccc2F)nc2cc3c(cc12)OCO3 | EKVX NSCLC | > 100 µM |

Prompt: Determine from records and report TGI for CC(C)C[S+]1C2=C([O-])CC(C)(C)CC2=Nc2ccccc21 (centres undefined)
Response: > 100 µM

Prompt: State its TGI for this compound: Cc1nc2ccccn2c1NC(=O)NN1C(=O)CSC1c1ccc(Cl)cc1 (centres undefined)
Response: > 100 µM

====

Recorded TGI for the following compounds
tested on: HCT-116 colon; test: NCI tumour cell line growth inhibition, 48 h

Example cases with answers are listed next.
| COMPOUND | TGI |
| --- | --- |
| Cc1cc(F)c(C(=O)Nc2cccc(-c3nncn3C(C)C)n2)cc1-n1cnc(C2CC2)c1 | > 100 µM |
| COC(=O)c1cc(-c2ccc3ccccc3c2)[nH]c(=O)c1C#N | > 100 µM |
| Cc1ccccc1NC(=O)CC1C(=O)Nc2ccccc2S1=O (configuration not stated) | > 100 µM |
| O/N=C1/CCCC/C1=C/C=C/c1ccccc1 | 29.7 µM |
| COc1cccc(/C=N/[N-]C(=O)c2ccncc2)c1[O-].[Mn+2].[OH3+] | > 100 µM |

Prompt: # return recorded TGI for input O=[N+]([O-])c1ccc(CSc2nn(Cc3ccc([N+](=O)[O-])cc3)cc3ncnc2-3)cc1
Response: > 100 µM

Prompt: Specify measured TGI for O=C1Cc2c(-c3ccccc3)cc(-c3ccccc3)nc2-c2ccccc2N1 .
Response: 5.37 µM

====

tested on: HL-60(TB) leukemia; test: NCI tumour cell line growth inhibition, 48 h
Quick reference: TGI of the listed items.

Known TGI results, listed for orientation:
| COMPOUND | TGI |
| --- | --- |
| O=C1Cc2c(-c3ccccc3)cc(-c3ccccc3)nc2-c2ccccc2N1 | > 100 µM |
| COc1ccc(-c2nc(-c3ccc(OC)cc3)n(-c3ccccc3)n2)cc1 | > 100 µM |
| NC1=NN(c2ccccc2)C(=O)C1C(=O)C(=O)Nc1ccc(Cl)cc1 (configuration not stated) | > 100 µM |

Would you kindly look at the next entry?
Prompt: Look up and state reported TGI for CC(=O)O[C@@H]1[C@H](OC2CCCCC2(c2ccccc2)c2ccccc2)O[N+]([O-])=CC12CCCCC2 (some centres not stated)
Response: 5.65 µM
